molecular target: GPR174 (Homo sapiens, UniProt Q9BXC1); assay: CRE-Luc reporter Gs signaling assay, cells transfected with GPR174; format: cell-based; set-up: host or cells: HEK293 or CHO cell lines (ATCC); conditions: human GPR174 with pCRE-Luc
Sequence (Q9BXC1 whole entry): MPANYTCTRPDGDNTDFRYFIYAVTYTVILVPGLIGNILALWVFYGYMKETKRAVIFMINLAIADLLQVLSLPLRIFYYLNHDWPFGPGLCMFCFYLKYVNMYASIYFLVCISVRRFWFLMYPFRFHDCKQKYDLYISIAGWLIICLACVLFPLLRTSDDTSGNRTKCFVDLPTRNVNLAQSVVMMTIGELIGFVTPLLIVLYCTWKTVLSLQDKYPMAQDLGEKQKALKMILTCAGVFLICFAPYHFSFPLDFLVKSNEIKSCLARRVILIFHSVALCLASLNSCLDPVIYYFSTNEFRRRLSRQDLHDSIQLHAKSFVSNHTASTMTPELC
Parameter: nature of compound in GPR174 signaling assay

>>> print(df.to_string())
                                     smiles    result_value
0  Cc1ccc(-c2nnc(Nc3ccccc3)c3ccccc23)cc1S(N)(=O)=O  non-modulators
1  Cc1ccccc1Nc1nnc(-c2ccc(C)c(S(N)(=O)=O)c2)c2ccccc12  non-modulators

* * *

Listed here: items and their measured pEC50.
target: GPR174 (Homo sapiens, UniProt Q9BXC1); test: Cellular Redistribution Assay (CRA) against GPR174; conditions: multiple values = separate experiments
Sequence (Q9BXC1 1-290 limits assumed): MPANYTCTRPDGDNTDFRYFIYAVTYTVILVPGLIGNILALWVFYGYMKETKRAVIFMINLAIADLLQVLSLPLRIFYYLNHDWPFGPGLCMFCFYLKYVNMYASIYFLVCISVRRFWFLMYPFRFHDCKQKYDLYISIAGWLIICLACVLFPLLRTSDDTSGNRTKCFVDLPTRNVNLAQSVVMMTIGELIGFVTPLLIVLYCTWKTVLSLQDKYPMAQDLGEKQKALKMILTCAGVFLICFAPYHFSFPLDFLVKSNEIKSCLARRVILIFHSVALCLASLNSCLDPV
Would you please state pEC50, meaning minus log10 of the concentration in mol/L, as a bare number?

Observe how each entry below is paired with its result.
In [3]: df
Out[3]:
                                     smiles  result_value
0     Cc1cc(C(=O)N/N=C/c2cc(Br)ccc2O)c(C)o1          5.43
1          O=C(N/N=C/c1cc(Cl)ccc1O)c1ccncc1          5.25
2  O=[N+]([O-])c1cc(F)c(N2CCCCC2)cc1N1CCN(S(=O)(=O)c2ccccc2)CC1          5.82

# context switch: different molecule, same pEC50
INPUT: Given the entry CC1CCN(c2cc(N3CCN(C(=O)c4cccs4)CC3)c([N+](=O)[O-])cc2F)CC1 , report its measured pEC50.
OUTPUT: 6.52
